Test system: UO-31
Test: NCI tumour cell line growth inhibition, 48 h
Activity calls are given as the source filed them. Cut-off read from the data, not from the text of the source: active = GI50 up to about 1.1 µM and inactive = higher.
Result category, one only: 1 (yes) = active, 0 (no) = inactive

## Task # outcome recorded in this test, key = `COCN1COCN(C)C1=O`
## Result 0 (no)

## Task Answer briefly: the call reported for `CC1=CC(=O)c2cccc(NC3=NCCO3)c21` in this assay.
## Result 0 (no)

## Task Assay result, entry O=C1[C@H]2ON(c3ccccc3)C(c3ccccc3)[C@H]2C(=O)N1c1ccc(Cc2ccc(N3C(=O)[C@@H]4ON(c5ccccc5)C(c5ccccc5)[C@@H]4C3=O)cc2)cc1 (some centres undefined) — outcome?
## Result 0 (no)

## Task # lookup: test call for `CSc1nc2cc(S(=O)(=O)N3CCCCC3)ccc2s1`
## Result 0 (no)

## Task Please share the test call associated with COc1c(C)cc2c(c1O)C1C3[C@H]4SC[C@@]5(NCCC6=C5NC5C=CC=CC65)C(=O)OCC(c5c6c(c(C)c(OC(C)=O)c54)OCO6)N3[C@@H](O)C(C2)N1C (some centres undefined) .
## Result 1 (yes)

## Task Entry `CC(C)CC(=O)NC(Nc1ccc(S(=O)(=O)Nc2ncccn2)cc1)(C(F)(F)F)C(F)(F)F` : call = ?
## Result 0 (no)

## Task Please indicate how the test categorized CC(NC1=NCCO1)c1ccco1 (centres undefined) .
## Result 0 (no)

## Task Each compound tested received a call. Report the one for CCC(C)[C@H]1C(=O)N=C(N)N1C(=O)OCc1ccccc1 (some centres undefined) .
## Result 0 (no)

## Task Which outcome was entered for the compound C[C@H]1CC(=O)C[C@@H]2CC[C@@H]3[C@H](CC[C@]4(C)C(OC(=O)c5cccc6c(=O)c7ccccc7[nH]c56)CC[C@@H]34)[C@]21C (some centres undefined) in this test?
## Result 0 (no)

## Task GET /call?item= `O=C(OCc1ccccc1)N(CCCCN(CCCNC(=O)C(F)(F)F)C(=O)OCc1ccccc1)CCCNC(=O)C(F)(F)F` returns the recorded outcome of this test.
## Result 0 (no)

## Task Please share the test call associated with CCN(CC)CC1CCCCCCCCCCC1=O (centres undefined) .
## Result 0 (no)

## Task How did this test come out for `Cc1nc2ccccc2c(=O)n1/N=C(\N=N\c1cc(Cl)ccc1Cl)c1cccc(-c2ccco2)c1` ?
## Result 0 (no)

## Task Test call for this compound, please: `CCOC(=O)C1(C#N)C(C#N)(C#N)C1(C#N)C#N`
## Result 0 (no)

## Task Recorded test outcome, item CC(=O)OCC12C(=O)C[C@@H](C)C3(CC(c4ccoc4)OC3=O)C1CCC(OC(C)=O)C21CO1 (some centres undefined)
## Result 0 (no)

---

System: DU-145
Test: NCI tumour cell line growth inhibition, 48 h
Active and inactive are the calls of the source. Rule as the data show it: active = GI50 up to about 1.1 µM and inactive = higher.
quantity-name: GI50

## Task Note GI50 for the compound shown: O=C(O/C=C\OC1CCCC1(c1ccccc1)c1ccccc1)c1ccccc1 (centres undefined)
## Result 3.02 µM (inactive)

## Task Recall and state the measured GI50 for O=C(O)CCC(NC(=O)c1ccc(Nc2nc3ccc(C(F)(F)F)cc3nc2C(=O)O)cc1)C(=O)O (centres undefined) .
## Result > 100 µM (inactive)

## Task State its GI50 for this compound: `C/C(=N\NC(=O)c1ccncc1)c1ccc2ccccc2c1O`
## Result 2.25 µM (inactive)

## Task Provide one value: measured GI50 of C/C1=C\C=C(\C(C)C)CC/C(C(=O)O)=C\CC/C(C)=C/CC1 [NEOCROTOCEMBRANEIC ACID]
## Result 33.1 µM (inactive)

## Task Return GI50 for the following compound: `Cc1nc(C)c(C(=O)NNC(=O)C[N+](C)(C)C)cc1C(=O)NNC(=O)C[N+](C)(C)C`
## Result > 100 µM (inactive)

## Task Answer with the recorded GI50 of `O=c1[nH]nc(-c2ccccc2)n1/N=C/c1cccs1` only.
## Result 32.3 µM (inactive)

## Task Quickly give me recorded GI50 for `Cc1c2c(n3c(nc4ccccc43)c1C#N)SCC2`
## Result > 10 µM (inactive)

## Task Quote GI50 reported for `C=CCSc1nnc2cc(CN3CCCC3)c(-c3ccc(Cl)cc3)nn12` please.
## Result 20.3 µM (inactive)

## Task Entry `O=c1c2c3c(sc2nc2n1N=C(c1ccc([N+](=O)[O-])cc1)CS2)CCCC3` needs its GI50 filled in; supply it.
## Result > 100 µM (inactive)
